- Assay Target: Y14;Magoh (human;human, UniProt Q9Y5S9;P61326 50-174;1-146, |)
- Sequence (P61326 whole entry, chain 2 of 2, other chains not shown): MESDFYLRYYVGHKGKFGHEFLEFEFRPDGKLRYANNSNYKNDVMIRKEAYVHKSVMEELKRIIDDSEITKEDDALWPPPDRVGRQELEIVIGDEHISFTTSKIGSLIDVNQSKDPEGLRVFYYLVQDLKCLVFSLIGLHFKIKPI
- Assay Remarks: SPR; no nucleotide stated; 5 mM Mg2+; SPR (Biacore 2000): 40 mM Tris-HCl pH 7.8, 50 mM NaCl, 4 mM DTT, 5 mM MgCl2, 0.002% Tween 20, 30 ul/min, 10-160 nM protein; temperature not stated
- Condition Set: protein: recombinant;recombinant; tags: none;N-terminal His6; copies: 1;1; label: 5' biotin; single strand
Readout Label: Kd

INSERT INTO results (binder, value) VALUES
  ('AUGUCAUUCGAGUACAGUCUGUUCAGCUAGUCUCC (ssRNA) [35-mer ssRNA]', '~2000 nM');

These measurements were taken from paper PMC1810427.
